test system: Candida albicans CBS 562; format: cell-based; details: CBS562, Table 1, read-out: MIC
Experimental Endpoint: MIC (µM)

I = CCCCCN(C)C [K-H, pentyl-dimethyl-amine cyanoborane]
II = CCCCCCC(C)(O)CN(C)C (stereo not shown) [K-O]
Ask: Consider entries I and II . Which has the numerically lower MIC? Provide the label of your selected option as the answer.
Result: I

A = CN(C)CCCCCCCCCCCCCCN(C)C [K-N]
B = CCCCCCCCCC(O)CN(C)C (stereo not shown) [K-U]
Ask: Compare MIC: is it lower for A or for B ? Use the label to indicate which entry you chose.
Result: A

* * *

test: in vivo; conditions: male, ICR, mouse, iv
Experimental Endpoint: MTD (µmol/kg)
Quick reminder: number only, in µmol/kg, skip the unit.

Ask: Please report MTD for the following compound: CCCCCCCCCCCN(C)C
Result: 73.1

* * *

tested on: Aspergillus fumigatus 64026; format: cell-based; conditions: Table 1, read-out: MIC
Experimental Endpoint: MIC (µM)

CN(C)CCCCCCCCCCCCCCN(C)C [K-N]	86

I = CCCCCN(C)C [K-H, pentyl-dimethyl-amine cyanoborane]
II = CCCCCCCCCC(O)CN(C)C (stereo not shown) [K-U]
III = C=CCCCCN(C)C [K-V, hex-5-enyl-dimethyl-amine cyanoborane]
Ask: Descending sort on MIC required. I would appreciate it if you listed the labels in the requested order.
Result: I, II, III
(I: 3240 µM, II: 492 µM, III: 94 µM)

* * *

test system: Candida albicans CBS 562; assay type: cell-based; conditions: CBS562, Table 1, read-out: MIC
Experimental Endpoint: MIC (µM)

These recorded examples may help you get a feel for the data.
OC(Cn1cncn1)(Cn1cncn1)c1ccc(F)cc1F [CAF2, Fluconazole, reference compound]	1.6
C=CCCN(C)C	470
CN(C)CCCCCCCCCCCCN(C)C	96

a = C=CCCCCN(C)C
b = CCCCN(C)C
Ask: For a and b , which recorded MIC is lower? The response must carry the label of the picked entry.
Result: a
(a: 94 µM, b: 3570 µM)

* * *

system: Aspergillus fumigatus 64026; type: cell-based; conditions: Table 1, read-out: MIC
Each entry below lists one item and its recorded MIC value.

These solved cases illustrate the format of a correct answer.
C=CCCN(C)C	> 3.62 mM
CCCCN(C)C	> 3.57 mM

The record that follows has no MIC shown yet.
Ask: Supply measured MIC of OC(Cn1cncn1)(Cn1cncn1)c1ccc(F)cc1F [CAF2, Fluconazole, reference compound] in your reply.
Result: > 0.208 mM
